Assay: A CellTox Green Cytotoxicity Assay to monitor cytotoxicity in HEK293 cells - 24 hour (AID 1224875); also: % is scaled to controls: 0 for no effect and ±100 for the full control effect; nearly all actives have a fitted effect of over 45% in size
Conditions: CellTox Green fluorescence, stronger effect = higher value; series mostly up to 76.8 µM
Excerpt: National Center for Advancing Translational Sciences [NCATS] NIH Chemical Genomics Center [NCGC] U.S. Environmental Protection Agency [EPA] National Institutes of Environmental Health Sciences [NIEHS] National Toxicology Program [NTP] Cell-based models are critical for drug discovery. […] Viable cells produce no appreciable increases in fluorescence. Therefore, the fluorescence signal produced by the binding interaction with dead cell DNA is proportional to cytotoxicity. […]
Records with an inconclusive call do not appear. Activity calls are given as the source filed them. Calls follow the shape of the dose curve; as a rule, active = well fitted activation curve with a large enough effect in the repeat runs; inconclusive = weak or mixed curves; inactive = flat fitted curve, though single readings scatter.
PARAMETER MEASURED: activity change

Q) // returns reported activity change for input C=C(C)C1CCC(C)(O)CC1 (centres undefined)
A) inactive

Q) // returns reported activity change for input `Cc1nc2n(c(=O)c1CCN1CCC(c3noc4cc(F)ccc34)CC1)CCC[C@H]2O`
A) -3.48% [at 15.8 µM] (inactive)

Q) // returns reported activity change for input `CCCCNC1CC(C)(C)NC(C)(C)C1`
A) inactive

Q) // returns reported activity change for input `CN1CCN(CC(=O)N2c3ccccc3C(=O)Nc3cccnc32)CC1`
A) -2.09% [at 6.97 µM] (inactive)
